These entries and their values trace back to ChEMBL document CHEMBL1133391.

tested on: Pseudomonas aeruginosa; test: Compound was evaluated for in vitro antibacterial activity against Pseudomonas aeruginosa 1771 strain by agar dilution method; type: functional
RECORDED_ENDPOINT: MIC (µg/mL)
The reply should contain only the number, in µg/mL.

compound=C[C@@H](O)[C@H]1C(=O)N2C(C(=O)O)=C(S[C@@H]3CN[C@H](C(=O)N(C)C)C3)[C@H](C)[C@H]12 target="Pseudomonas aeruginosa" unit_tag=µg/mL measured=0.361
compound="CCC(C)[C@@H](O)C1=C(C(=O)[O-])N2C(=O)[C@H]([C@@H](C)O)C2[C@H]1C.[Na+] (some centres not stated)" target="Pseudomonas aeruginosa" unit_tag=µg/mL measured=100
compound="CC(C)[C@H](O)C1=C(C(=O)[O-])N2C(=O)[C@H]([C@@H](C)O)C2[C@H]1C.[Na+] (some centres not stated)" target="Pseudomonas aeruginosa" unit_tag=µg/mL measured=100
compound="C[C@H]1C([C@H](O)C2CC2)=C(C(=O)[O-])N2C(=O)[C@H]([C@@H](C)O)C12.[Na+] (some centres not stated)" target="Pseudomonas aeruginosa" unit_tag=µg/mL measured=100
compound="CO[C@H]1CCC[C@H]2C1=C(C(=O)[O-])N1C(=O)[C@H]([C@@H](C)O)[C@@H]21.[Na+] [SANFETRINEM SODIUM]" target="Pseudomonas aeruginosa" unit_tag=µg/mL measured=25
compound="CC[C@@H](O)C1=C(C(=O)[O-])N2C(=O)[C@H]([C@@H](C)O)C2[C@H]1C.[Na+] (some centres not stated)" target="Pseudomonas aeruginosa" unit_tag=µg/mL measured=100

Let us move to another entry and its MIC.
// query # value lookup — system Pseudomonas aeruginosa, readout MIC, item CC(C)[C@@H](O)C1=C(C(=O)[O-])N2C(=O)[C@H]([C@@H](C)O)C2[C@H]1C.[Na+] (some centres not stated)
// result 100
